// provenance: ChEMBL document CHEMBL1142990

biological target: ATP-dependent translocase ABCB1 (Homo sapiens, UniProt P08183); test: Inhibition of P-glycoprotein expressed in MDR CCRF vcr1000 cells by daunorubicin efflux assay
Sequence (P08183 whole entry): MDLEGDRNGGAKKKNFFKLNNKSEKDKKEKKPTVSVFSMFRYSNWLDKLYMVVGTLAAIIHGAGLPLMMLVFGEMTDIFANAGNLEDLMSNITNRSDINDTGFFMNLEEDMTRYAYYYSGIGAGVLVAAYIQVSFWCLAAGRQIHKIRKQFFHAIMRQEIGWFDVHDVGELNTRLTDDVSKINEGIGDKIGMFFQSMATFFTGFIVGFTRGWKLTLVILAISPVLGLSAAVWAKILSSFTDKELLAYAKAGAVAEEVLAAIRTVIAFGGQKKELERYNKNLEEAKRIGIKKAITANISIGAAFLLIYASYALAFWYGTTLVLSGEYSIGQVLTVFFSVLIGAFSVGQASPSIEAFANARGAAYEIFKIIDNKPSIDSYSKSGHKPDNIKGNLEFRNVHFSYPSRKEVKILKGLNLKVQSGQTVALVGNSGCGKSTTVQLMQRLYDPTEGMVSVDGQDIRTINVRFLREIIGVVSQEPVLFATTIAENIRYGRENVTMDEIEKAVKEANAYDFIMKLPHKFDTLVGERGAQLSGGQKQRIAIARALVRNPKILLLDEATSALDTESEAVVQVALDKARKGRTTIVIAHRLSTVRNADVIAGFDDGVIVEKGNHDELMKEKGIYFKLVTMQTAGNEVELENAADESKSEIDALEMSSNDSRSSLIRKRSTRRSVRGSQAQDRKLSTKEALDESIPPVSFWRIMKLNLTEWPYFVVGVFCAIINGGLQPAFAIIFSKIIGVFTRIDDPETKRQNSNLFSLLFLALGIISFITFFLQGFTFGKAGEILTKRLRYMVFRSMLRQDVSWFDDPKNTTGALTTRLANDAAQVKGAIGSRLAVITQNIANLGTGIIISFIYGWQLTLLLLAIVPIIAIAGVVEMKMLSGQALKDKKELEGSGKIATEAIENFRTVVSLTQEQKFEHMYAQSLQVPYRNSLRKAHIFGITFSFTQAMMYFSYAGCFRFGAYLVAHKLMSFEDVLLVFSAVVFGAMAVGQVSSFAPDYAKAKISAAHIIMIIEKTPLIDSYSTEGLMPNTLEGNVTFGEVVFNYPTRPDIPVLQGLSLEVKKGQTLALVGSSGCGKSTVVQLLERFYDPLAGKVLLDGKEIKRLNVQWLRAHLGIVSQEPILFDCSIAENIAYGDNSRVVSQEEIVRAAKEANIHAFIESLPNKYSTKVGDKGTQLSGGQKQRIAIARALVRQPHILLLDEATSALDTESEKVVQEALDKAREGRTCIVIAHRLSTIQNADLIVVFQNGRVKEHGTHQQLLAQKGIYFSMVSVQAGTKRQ
Exercise: for every item that follows, state its recorded pEC50.
As a rule, pEC50 stands for the negative log10 of the concentration, concentration in M.

Note to self: pEC50 recorded for O=C(CCc1ccccc1)c1ccccc1OCC(O)CN1CCN(c2ccc(F)cc2)CC1 (stereo unspecified) was 7.15

Input COc1ccc(N2CCN(CC(O)COc3ccccc3C(=O)CCc3ccccc3)CC2)cc1 (stereo unspecified) . Output pEC50: 6.59

Memo: O=C(N/N=C/c1c(F)cccc1Cl)C(=O)N1CCCCCC1 , reported pEC50: 3.80

In plain terms, CCCNC[C@@H](O)c1oc2ccccc2c1CCc1ccccc1 has a documented pEC50 of 5.96
